Record form. Attribute: AC50. Fill in for each entry.
- Protocol description: non-specific 3'UTR reporter inhibition in Clone20-Shn3RL – cell-based, Renilla luciferase, cherry-picked, counter-screen for Shn3 inhibitor project, dose response (AID 624133)
- Type: functional
Calls of active or inactive are those of the source.

Solved entries:
> print(dat)
                                   molecule  readout.name    endpoint.value
1  C=CCOc1nc2c(c(=O)n(C)c(=O)n2C)n1Cc1ccc(Cl)cc1Cl          AC50   7.4 µM (active)
2  Cc1ccc(NC(=O)c2cc(S(=O)(=O)NCCC3=CCCCC3)ccc2F)cc1F          AC50  46.1 µM (active)
3  CCOC(=O)c1cnc(-n2nc(C)cc2C)nc1NNc1cc(C)nc(-c2ccccc2)n1          AC50  2.29 µM (active)

I am curious: what AC50 value has been reported for COC(=O)C1CN(C#N)N(c2ccc(Cl)cc2)C12c1ccccc1-c1ccccc12 (centres undefined) ?
3 µM (active)

====

Record form. Attribute: IC50. Fill in for each entry.
- System: Carboxy-terminal domain RNA polymerase II polypeptide A small phosphatase 1 (Homo sapiens, UniProt Q9GZU7)
- Sequence (Q9GZU7 whole entry): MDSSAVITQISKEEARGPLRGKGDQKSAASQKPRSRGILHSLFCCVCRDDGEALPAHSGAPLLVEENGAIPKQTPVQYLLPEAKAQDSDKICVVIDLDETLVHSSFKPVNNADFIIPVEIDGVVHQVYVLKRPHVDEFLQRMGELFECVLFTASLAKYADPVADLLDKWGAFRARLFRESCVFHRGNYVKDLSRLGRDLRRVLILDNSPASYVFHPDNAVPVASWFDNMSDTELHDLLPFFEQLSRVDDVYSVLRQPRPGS
- Protocol description: CTDSP1 inhibitors, concentration-response, biochemical, absorbance readout, ultra-high-throughput screen actives (AID 540297)
- Type: functional
The source made the active and inactive calls.

Solved entries:
> print(dat)
                                   molecule    endpoint.value
1  COc1cccc2cc(-c3cc(=O)oc4cc(C)c(O)cc34)oc12  9.12 µM (active)
2  O=C(Nc1nc2ccccc2s1)C1CCN(S(=O)(=O)c2cc([N+](=O)[O-])ccc2Cl)CC1  3.28 µM (active)
3      O=C1CC2CCCN2C=C1I (stereo not given)  5.48 µM (active)

Please go through the list and note IC50 for each molecule.
1. CCn1cc(C(=O)NCc2ccco2)c(=O)c2cc(F)c(N3CCN(C(=O)c4ccco4)CC3)cc21
2. Cc1cc(/C=C(/C#N)c2nc3ccccc3[nH]2)c(C)n1-c1cc(C(=O)O)cc(C(=O)O)c1

17.6 µM (active)
5.68 µM (active)

====

- Protocol description: viability loss of HPDE-C7K cells – cell-based, fluorescence, HTS, primary screen (AID 431)
- Type: functional
- Condition: Homo sapiens
Calls of active or inactive are those of the source.
Readout name: EC50

Solved entries:
> print(dat)
                                   compound  readout.name        endpoint.value
1  CC1=C(/C=C/C(C)=C/C=C/C(C)=C/C(=O)O)C(C)(C)CCC1          EC50  > 20 µM (not active)
2  COc1cc(C(Nc2ccccn2)c2ccc3ccc(C)nc3c2O)cc(OC)c1O (centres undefined)          EC50      4.83 µM (active)
3   Cc1ccc2c(c1)c1ncnc(N3CCc4ccccc4C3)c1n2C          EC50      11.7 µM (active)

// moving on: another record for EC50
I am curious: what EC50 value has been reported for O=C(c1ccc2nc(-c3ccco3)c(-c3ccco3)nc2c1)N1CCN(c2ccccc2)CC1 ?
> 20 µM (not active)
